System: IGROV-1
PROTOCOL: NCI tumour cell line growth inhibition, 48 h
Calls of active or inactive are those of the source. No stated cut-off is given here; in the data, active = GI50 up to about 1.1 µM and inactive = higher.
Respond only with the outcome that fits, drawn from active, inactive

[[record]]
compound = "COCCO"
tgt = "IGROV-1"
answer_label = "inactive"


// param item: "Cc1ccc2c(O)cc(-c3ccc(Cl)s3)nc2n1" ; yields the recorded call
active

And for "CN(C)c1ccc(/C=C2\C[N+](C)(C)C/C(=C\c3ccc(N(C)C)cc3)C2=O)cc1" ?
inactive

----------
Test system: SN12C
PROTOCOL: NCI tumour cell line growth inhibition, 48 h
Active and inactive are the calls of the source. No stated cut-off is given here; in the data, active = GI50 up to about 1.1 µM and inactive = higher.
ATTRIBUTE MEASURED: GI50

Example results:
[[record]]
compound = "CC(=O)Nc1ccc(-c2nc3ccccc3s2)cc1I"
attribute_measured = "GI50"
measured_value = "36.6 µM (inactive)"

[[record]]
compound = "O=C1OC(=O)C2C3CCC(O3)C12 (stereo unspecified)"
attribute_measured = "GI50"
measured_value = "> 100 µM (inactive)"

[[record]]
compound = "C=C1[C@@H](O)C[C@@]23CC[C@@H]4[C@@]5(C)CC[C@@H](OC(C)=O)C(C)(C)[C@@H]5C[C@@H](OC5OC(COC(C)=O)C(O)C(O)C5O)[C@@]4(C)C2=CC[C@H]3[C@H]1C (stereo partly specified)"
attribute_measured = "GI50"
measured_value = "7.98 µM (inactive)"


GI50 lookup needed for "Cc1cnc(-c2c[nH]c3ccccc23)nc1-c1c[nH]c2ccccc12" , thanks.
1.68 µM (inactive)

And for "CCCCSc1n/c(=C\c2ccc(N(C)C)cc2)c2nnnn12" ?
> 100 µM (inactive)

And for CCOC(=O)C(C(=S)SC)c1nn2c(=O)cc(C)nc2s1 (stereo unspecified) ?
16.2 µM (inactive)

And for COc1ccc(C2S/C(=C\c3cc(OC)c(OC)c(OC)c3)C(=O)N2NC(=O)Cc2ccccc2)cc1 (stereo unspecified) ?
> 100 µM (inactive)

And for "O=c1oc2cc(O)ccc2c(O)c1C(c1ccccc1F)c1c(O)c2ccc(O)cc2oc1=O" ?
> 100 µM (inactive)

And for CCCCN(CCCC)CC(C(=O)Nc1ccccc1)/C(C)=N\NC(=O)c1ccncc1 (stereo unspecified) ?
> 100 µM (inactive)

And for "CSC(SC)=C(C#N)C(=O)Nc1ccc(Cl)cc1" ?
> 100 µM (inactive)

And for "COCCO" ?
> 100 µM (inactive)

And for "O=c1n(N=[S+]([O-])(c2ccccc2)c2ccccc2)c(=O)n2n1C1C=CC2CC1" ?
> 100 µM (inactive)

----------
Tested on: IGROV-1
PROTOCOL: NCI tumour cell line growth inhibition, 48 h
Active and inactive are the calls of the source. No stated cut-off is given here; in the data, active = GI50 up to about 1.1 µM and inactive = higher.
ATTRIBUTE MEASURED: GI50

Example results:
[[record]]
molecule = "CC(=O)N/C(=C\\c1ccc(Cc2nc3c([nH]2)C(=O)c2ccccc2C3=O)cc1)c1nc2c([nH]1)C(=O)c1ccccc1C2=O"
attribute_measured = "GI50"
measured_value = "> 100 µM (inactive)"

[[record]]
molecule = "Cc1cn(C2CC(N/C(=N/C#N)NCC3OC(n4cnc5c(N)ncnc54)CC3O)C(CO)O2)c(=O)[nH]c1=O (stereo not given)"
attribute_measured = "GI50"
measured_value = "> 100 µM (inactive)"

[[record]]
molecule = "CC(=O)N1c2ccccc2C23CCN4CC5=CCOC(O)C(C5CC42)C13 (stereo not given)"
attribute_measured = "GI50"
measured_value = "> 100 µM (inactive)"

[[record]]
molecule = "CC1NOC(=O)C1/N=N/c1cccc(Cl)c1 (stereo not given)"
attribute_measured = "GI50"
measured_value = "40.8 µM (inactive)"


// below: GI50 requested for another molecule
Hello, I am looking for reported GI50 with IGROV-1 for O=c1n(-c2ccccc2)c(=O)n2n1C1Cc3ccccc3C12 (stereo not given) . Could you help?
> 100 µM (inactive)

----------
Tested on: SN12C
PROTOCOL: NCI tumour cell line growth inhibition, 48 h
Calls of active or inactive are those of the source. Cut-off read from the data, not from the text of the source: active = GI50 up to about 1.1 µM and inactive = higher. Where a SMILES comes first, the peptide text is derived from it. [ ]: non-standard residue; d: D form. The star is where a group is joined. Phe(4-NO2) = N[CH](Cc1ccc([N+](=O)[O-])cc1)C(=O)O; Cbz = O=C(OCc1ccccc1)*
Respond only with the outcome that fits, drawn from active, inactive

[[record]]
compound = "CC(SC(=S)N1CCOCC1)C(=O)Nc1nnc(-c2ccc(Cl)cc2)o1 (configuration not stated)"
answer_label = "inactive"

[[record]]
compound = "CS[C@]12[C@@H]3C(=O)N(C)C(=O)[C@@H]3[C@](C)(C(=O)N1C)C(=O)N2c1ccccc1"
answer_label = "inactive"

[[record]]
compound = "CC(C)(C)c1ccc(OC(=O)Nc2ccc(O)c(C(=O)O)c2)cc1"
answer_label = "inactive"

[[record]]
compound = "CCOC(=O)CCC(NC(=O)OCc1ccccc1)C(=O)NC(CCC(=O)OCC)C(=O)NC(Cc1ccc([N+](=O)[O-])cc1)C(=O)NC(CCC(=O)OCC)C(=O)NC(CCC(=O)OCC)C(=O)OCC (configuration not stated) (Cbz-E(OEt)E(OEt)[Phe(4-NO2)]E(OEt)E(OEt)-OEt; configuration not given here)"
answer_label = "inactive"

[[record]]
compound = "CC1[C@@H]2CC=C3C4CCC5Cc6nc7c(nc6C[C@@]5(C)C4CC(=O)[C@]32CO[C@@]1(O)C(O)CC(C)(C)O)CC1CCC2C3=C[C@H]4O[C@@]5(O[C@@](C)(CO)C[C@@H]5O)C(C)[C@@]4(O)[C@]3(C)[C@@H](O)CC2[C@]1(C)C7 (some centres not stated)"
answer_label = "active"

[[record]]
compound = "O=C1CC(=O)N(CCc2ccccc2)S(=O)(=O)N1CCc1ccccc1"
answer_label = "inactive"


Here's the next entry for you.
// param item: CCOC1NC(=O)Oc2cc3ccccc3cc21 (configuration not stated) ; yields the recorded call
inactive

----------
System: COLO 205
PROTOCOL: NCI tumour cell line growth inhibition, 48 h
Active and inactive are the calls of the source. No stated cut-off is given here; in the data, active = GI50 up to about 1.1 µM and inactive = higher.
Measured GI50 by item

[[record]]
compound = "COc1ccc2nc3cc([N+](=O)[O-])ccc3c(Nc3ccc(S(=O)(=O)N=C(N)N)cc3)c2c1"
attribute_measured = "GI50"
measured_value = "23.1 µM (inactive)"

[[record]]
compound = "COC(=O)C(CCCC1(c2ccccc2)OCCO1)C(C)=O (stereo not given)"
attribute_measured = "GI50"
measured_value = "> 100 µM (inactive)"

[[record]]
compound = "CNC(=O)OCc1nc(N=[N+]=[N-])n(C)c1COC(=O)NC"
attribute_measured = "GI50"
measured_value = "32.8 µM (inactive)"

[[record]]
compound = "CC(N/N=C(\\S)N1CCN(c2ccccn2)CC1)c1cccc[n+]1[O-] (stereo not given)"
attribute_measured = "GI50"
measured_value = "10.5 µM (inactive)"


// below: GI50 requested for another compound
GI50 lookup needed for "CN(C)CCCNc1nnc(NCCCN(C)C)c2c(=O)c3sccc3[nH]c12" , thanks.
2.82 µM (inactive)

----------
Tested on: MDA-MB-435
PROTOCOL: NCI tumour cell line growth inhibition, 48 h
Activity calls are given as the source filed them. Cut-off read from the data, not from the text of the source: active = GI50 up to about 1.1 µM and inactive = higher.
Measured GI50 by item

Example results:
[[record]]
compound = "CC(=O)OCC1OC(n2c(-c3ccccc3)c(C(C)=O)c(-c3ccc(Cl)cc3)c(C#N)c2=S)C(OC(C)=O)C(OC(C)=O)C1OC(C)=O (stereo not drawn)"
tgt = "MDA-MB-435"
measured_value = "> 100 µM (inactive)"

[[record]]
compound = "CC(C)(C)c1ccc(OC(=O)Nc2ccc(O)c(C(=O)O)c2)cc1"
tgt = "MDA-MB-435"
measured_value = "> 100 µM (inactive)"

[[record]]
compound = "O=[N+]([O-])c1ccc(-n2nc3ccc4c(no[n+]4[O-])c3n2)cc1"
tgt = "MDA-MB-435"
measured_value = "> 100 µM (inactive)"


// below: GI50 requested for another compound
Hello, I am looking for reported GI50 with MDA-MB-435 for C=CC(=O)NC(O)(C(=O)OCC)C(F)(F)F (stereo not drawn) . Could you help?
> 100 µM (inactive)

----------
System: XF498
PROTOCOL: NCI tumour cell line growth inhibition, 48 h
The source made the active and inactive calls. No stated cut-off is given here; in the data, active = GI50 up to about 1.1 µM and inactive = higher.
Respond only with the outcome that fits, drawn from 1.0 = active, 0.0 = inactive

Answered examples (5):
[[record]]
compound = "COc1ccc(C2N(NC(=O)c3ccncc3)C(=O)CS2(=O)=O)cc1F (stereo unspecified)"
answer_label = 0.0

[[record]]
compound = "O=C(NC12CC3CC(CC(C3)C1)C2)C(=O)c1c[nH]c2ccc(Cl)cc12"
answer_label = 0.0

[[record]]
compound = "Cc1cccc2c(O)cc(=O)oc12"
answer_label = 0.0

[[record]]
compound = "Cc1ccc(NC(=O)CCC(=O)C2CC(=O)CC/C2=N\\NC(=O)c2cc3ccccc3cc2O)cc1C (stereo unspecified)"
answer_label = 0.0

[[record]]
compound = "Cn1ncc2cc3c(Nc4ccc(Cl)cc4)cccc3nc21"
answer_label = 0.0


Here's the next entry for you.
// param item: "CC(C)OP(=O)(OC(C)C)c1nn(-c2ccc([N+](=O)[O-])cc2)c(=N)s1" ; yields the recorded call
0.0
